Let's look at some compounds and their measured GI50.
- Tested on: K562
- assay-remarks: NCI tumour cell line growth inhibition, 48 h
The source made the active and inactive calls. No stated cut-off is given here; in the data, active = GI50 up to about 1.1 µM and inactive = higher.

These solved cases illustrate the format of a correct answer.
Record CC(C)/C(Cl)=N\OC(=O)Nc1ccc(C#N)cc1 . Reported GI50: 2 µM (inactive)

Per the records, this compound ( Cc1n[nH]c(=O)n1N=C(c1ccccc1)c1ccccc1 ) has GI50 equal to > 100 µM (inactive)

Entry COc1cc(OC)c(OC)cc1/C=N/NC(=O)N/N=C/c1cc(OC)c(OC)cc1OC — recorded GI50 = > 100 µM (inactive)

What the record says about O=C(CN1CCOCC1)NC1=Nc2ncccc2C(=O)NN1 : GI50 is > 10 µM (inactive)

Record summary for C#CC1/C(=C\C(=O)OC)CCCC1O (stereo unspecified) : reported GI50 = > 100 µM (inactive)

Further cases:
// GI50 lookup, compound = CC(=O)C1=C(C)N(c2ccc(C)cc2)C2(O)C3=C(C(=O)c4ccccc4C3=O)C(O)=CC12Cl (stereo unspecified) , result: 7.43 µM (inactive)

----------
Each entry below lists one item and its recorded GI50 value.
- System: SF-539
- assay-remarks: NCI tumour cell line growth inhibition, 48 h
Active and inactive are the calls of the source. No stated cut-off is given here; in the data, active = GI50 up to about 1.1 µM and inactive = higher.

Value of GI50 reported for the molecule [N-]=[N+]=Nc1nc2ccccc2c(N=[N+]=[N-])c1Cl is 96.8 µM (inactive)

molecule COC1(OC)C2(Cl)C(Cl)=C(Cl)C1(Cl)C1COCC12 (centres undefined) , GI50 observed: > 100 µM (inactive)

Value of GI50 reported for the molecule C=CC/N=C1/N=C(CC(=O)OCC)CS1 is > 100 µM (inactive)

Kindly note the recorded GI50 for N#CC1=C(N)OC2=C(CCCc3ccc([N+](=O)[O-])cc32)C1c1ccc(Cl)cc1 (centres undefined) , which is 8.97 µM (inactive)

The molecule listed as O=[N+]([O-])C(/C=N/Nc1ccccc1)/C=N/Nc1ccccc1 shows GI50 equal to > 100 µM (inactive)

get_value(item= N=C(N)N/N=C/c1c(-c2ccc(Cl)c([N+](=O)[O-])c2)nc2sc(Cl)cn12 , readout=GI50) returns 2.3 µM (inactive)

Next, consider the following molecule.
Summary for this molecule, C=CCn1c(=O)ccn(/C(=C/C(=O)OCC)C(=O)OCC)c1=O : GI50 is 24 µM (inactive)

----------
- Test system: BT-549
- assay-remarks: NCI tumour cell line growth inhibition, 48 h
Activity calls are given as the source filed them. Rule as the data show it: active = GI50 up to about 1.1 µM and inactive = higher.
Examples of compounds with documented GI50 follow.

Previously resolved entries follow.
Given item C=CCN1CCC(OC(=O)C(O)(C#CC)C2CCCC2)CC1 (centres undefined) , the value recorded as its GI50 is > 100 µM (inactive)

According to the records, this compound Cc1cc(S(=O)(=O)/N=C(\NN)Nc2ccc(Cl)cc2)c(S)cc1Cl displays GI50 of 10.8 µM (inactive)

// GI50 value for C=CCOc1ccc(C2c3c(n[nH]c3O)CC(C)(O)C2C(=O)OC)cc1OC (centres undefined) : > 100 µM (inactive)

Note to self: GI50 recorded for NNC(=O)c1ccccc1Nc1nc(-c2cccs2)nc2ccc(Br)cc12 was 84.1 µM (inactive)

Measured GI50 of CCc1cc(Cc2cc(CC)c(NC(=O)C(=O)CC(=O)c3sc(-c4cccnc4)nc3C)c(CC)c2)cc(CC)c1NC(=O)C(=O)CC(=O)c1sc(-c2cccnc2)nc1C : > 100 µM (inactive)

Note to self: GI50 recorded for COc1c(OC/C=C(\C)CCC=C(C)C)ccc2ccc(=O)oc12 was 53.3 µM (inactive)

***
Given item COc1cc(/C=C2\C[C@H]3[C@@H]4CCc5cc(O)ccc5[C@H]4CC[C@]3(C)C2=O)cc(OC)c1OC , the value recorded as its GI50 is 18.9 µM (inactive)

Record CCN(CC)CC[n+]1ccc2c(C)c3[nH]c4ccccc4c3c(C)c2c1 , field GI50: 1.3 µM (inactive)

Nc1ncn(C/C=C/c2ccccc2)c2ncnc1-2 yielded GI50 of > 100 µM (inactive)

----------
- Test system: SW-620
- assay-remarks: NCI tumour cell line growth inhibition, 48 h
The source made the active and inactive calls. Rule as the data show it: active = GI50 up to about 1.1 µM and inactive = higher.
# valid calls are yes (active), no (inactive); nothing else

Ask: What did the test return for CN1CCN(CN2C(=O)C3C4C=CC(C3C2=O)C2C3C(=O)N(CN5CCN(C)CC5)C(=O)C3C42)CC1 (centres undefined) ?
Reply: no

Ask: Entry Cc1ccc(S(=O)OCc2c(C)c(C)c(COS(=O)c3ccc(C)cc3)c(C)c2C)cc1 (centres undefined) : call = ?
Reply: no

Ask: Dear colleague, could you share the recorded outcome for N=C(N)SCCN1CCCCC1 when you have a moment?
Reply: no

Ask: Called result for CC(=O)OC(C)(C)[C@H]1O[C@]23O[C@]1(C)C[C@@H](C)[C@@H]2[C@@]1(C)CC[C@@]24C[C@@]25CC[C@H](O[C@@H]2OC[C@@H](O)[C@H](O)[C@H]2O)C(C)(C)[C@@H]5CC[C@H]4[C@]1(C)[C@H]3O
Reply: no

Continuing:
Ask: I'd appreciate the recorded outcome for Fc1ccccc1C1SCC2=Nc3ccccc3CN21 (centres undefined) from this test.
Reply: no

Ask: Recorded call for CCOC(=O)c1cc(Cl)ccc1OC(N)=O ?
Reply: no

Ask: Give the logged outcome of this assay for the following compound: CCOC(=O)Nc1cc2c(c(N)n1)N=C(c1ccccc1)[C@H](C)N2 [MIVOBULIN ISETHIONATE]
Reply: yes

Ask: Dear all, I need the recorded test outcome for c1nncn1C12C3C4C5C3C1C5C42 (centres undefined) , thank you.
Reply: no

Ask: Please share the test call associated with COc1cc(OC)c(OC)cc1/C=C/c1cc[n+](C)c2ccccc12 .
Reply: no

----------
- Tested on: MOLT-4
- assay-remarks: NCI tumour cell line growth inhibition, 48 h
Activity calls are given as the source filed them. Rule as the data show it: active = GI50 up to about 1.1 µM and inactive = higher.
Pick one: Y = active, N = inactive

Ask: Call for entry Cc1ccc(S(=O)(=O)CC2CCCn3c2c(C#N)c2ccccc23)cc1 (centres undefined) :
Reply: N

Ask: Could you check what this test reported for [C-]#[N+]C(C)(C)C[C@H]1CC(C)C2CCC(C)C3([N+]#[C-])CCC(=C)C1[C@H]23 (some centres undefined) ?
Reply: Y

Ask: Recorded test call requested for O=C1Nc2ccccc2C(=O)/C1=C/NC(=S)NC1CCCCC1
Reply: N

Ask: What call does the record list for Cc1ccc(-c2cc(=O)c(=O)[nH][nH]2)cc1 ?
Reply: N

Ask: // outcome(item) with item = CCN(CC)C1Oc2cc3c(cc2C(c2ccc(OC)cc2)C1C)OCO3 (centres undefined)
Reply: N

Ask: # lookup: test call for COc1ccc(NC(C)=O)cc1N1C(=O)/C(=C\c2cc(OC)c(OC)c(OC)c2)S(=O)(=O)C1c1ccccc1 (centres undefined)
Reply: N

Ask: Dear colleague, could you share the recorded outcome for Cc1ccc(C)c(NC2=NC(=O)C(CC(=O)Nc3ccc(Cl)cc3Cl)S2)c1 (centres undefined) when you have a moment?
Reply: N

Ask: What was the test verdict on O=c1c2ccccc2n2n1CC(O)C2 (centres undefined) ?
Reply: N

Ask: Record lookup: outcome of this test for N#Cc1nc(C#N)n(S(=O)(=O)c2ccccc2)c1NS(=O)(=O)c1ccccc1 ?
Reply: N

Ask: Assay outcome for COc1ccc2c(c1)c(=Cc1ccc(N(C)C)cc1)c1cc(-c3ccccc3)[n+](C)n12 : what was it?
Reply: Y

Ask: Check the results log: what was the call for c1ccc([B-]2(c3ccccc3)OCCc3cccc[n+]32)cc1 ?
Reply: N

Ask: Which outcome was entered for the compound CC1(C)OCC=CCO1 in this test?
Reply: N

Ask: How was C=C1[C@H](OC(=O)C(C)C)[C@]23CC4(O)[C@@H]5[C@@]6(C)CCC[C@]57C([C@@H]2C[C@@]1(O)[C@H](O)[C@@H]73)N4C6 classified in this test?
Reply: N

Ask: Outcome? COc1cc(OC)c(OC)cc1/C=C/c1cc[n+](C)c2ccccc12
Reply: N

Ask: Would you mind telling me which call this test gave CN1CCC2(CC1)SC[C@H]1C(=O)N(c3ccc(Cl)cc3)C(=O)N12 ?
Reply: N

Ask: Check the results log: what was the call for C/C(=N/O)c1cccc(Nc2nc3ccccc3c3[nH]c4ccccc4c23)c1 ?
Reply: Y

Ask: GET /call?item= Cc1nc(N)sc1C(=O)Nc1nc[nH]n1 returns the recorded outcome of this test.
Reply: N

Ask: Test call for this compound, please: CC1(C)CC(=O)c2[nH]c3ccccc3c2CC(=O)NCCc2cn1cn2
Reply: N

Ask: Assay result, entry C/C=C/[C@H]1O[C@@](OC)([C@@H](C)[C@H](O)[C@H](C)[C@H]2OC(=O)/C(OC)=C/C(C)=C/[C@@H](C)[C@@H](O)[C@@H](C)[C@@H](O)[C@H](C)C/C(C)=C/C=C/[C@@H]2OC)CC(OC2CC(O)C(OC(N)=O)C(C)O2)[C@@H]1C (some centres undefined) — outcome?
Reply: Y
